Test: yeast display, Sf9 membrane polyspecificity reagent, FACS + sequencing; frameworks hold sequencing errors
Measure Name: polyreactivity (PSR sort gate)

Q: Quick one: polyreactivity (PSR sort gate) for "QVQLVESGGGLVQAGGSLRLSCAASGSIFKYYAMGWYRQAPGKERELLADISFGGDSTYYADSVKGRFTISRDNAKNTVYLQMNSLIPEDTAVYYCAAAPYFWFVEYDYWGQGTQVTVSS" ?
Result: low polyreactivity

Q: Quick one: polyreactivity (PSR sort gate) for "QVQLVESGGGVVQAGGSLRLSCAASGRTFPLYAMGWYRQAPGKERELVAAIRTGGSTNYADSVKGRFTISRDNAKNTVYLQMNSLKPEDTAVYYCAAVQRTDRSAHYSWGQGTQVTVSS" ?
Result: low polyreactivity

Q: Quick one: polyreactivity (PSR sort gate) for "QVQLVESGGGLVQAGGSLRLSCAASGRIFYPNAMGWYRQAPGKERELVAGISRSGGSTYYADSVKGRFTISRDNAKNTVYLQMNSLKPEVTAVFYCAARYYASDRHFRGDYWGQGTQVTVSS" ?
Result: low polyreactivity

Q: Quick one: polyreactivity (PSR sort gate) for "QVQLVESGGGLVQAGGSLRLSCAASGGTQRYYVMGSYRQAPGKERELVAAISWSGDSTYYADSVKGRFTISRDNAKNTVYLQMNSLKPEDTAVYYCAATYYLTYYYGQANHCYDYWGQGTQVTVSS" ?
Result: low polyreactivity

***
Q: Quick one: polyreactivity (PSR sort gate) for "QVQFVESGGALVQAGGSLRLSCAASGSTFQGYAMGWYRQAPGKETELVAAISRSGGRTYYADSVTGRFTISRDNAKNTVYLQMISLKPEDTAVYYCAAEGHELTDGDSWGQGTQVTVSS" ?
Result: low polyreactivity

Q: Quick one: polyreactivity (PSR sort gate) for "QDQLVESGGGLVQAGGSLRLSCAASGRIFQGYAMGWYRQAPGKERELVAAITLSGGSTYYADSVKGRFTISRDNAKNTVYLQMNSLKPEDTAVYYCNAYYPDEPSLYDYWGQGTQVTVSS" ?
Result: low polyreactivity

Q: Quick one: polyreactivity (PSR sort gate) for "QVQLVESGGGLVQAGGSLRLSCAASGFNFYFYTMGWYRQAPGKERELVAGITWSGDSTYYADSVKGRFTISRDNAKNTVYLQMNSLKPEDTAVYYCAAGFDFGTRVSKGYDYWGQGTQVTVSS" ?
Result: low polyreactivity

Q: Quick one: polyreactivity (PSR sort gate) for "QVQLVESGGGLVQAGGSLRLSCAASGGTFNGYALGWYRQAPGKERELVAAITSGGGSTYADSVKGRFTISRDNAKNTVYLQMNSLKPEDTAVYYCNADQWDEWFWDYDYWGQGTQVTVSS" ?
Result: low polyreactivity

Q: Quick one: polyreactivity (PSR sort gate) for "QVQVVESGGGIVKAGGSLRLSCAPSGSTFYYYAMGWYRQAPRKERELVATISWSGDSTYADSVKGRFTISRDNSKNTVYLQLTSLKPEDTAVYYCATCGDWWGFRYDYWGQCTQVTVSS" ?
Result: low polyreactivity

Q: Quick one: polyreactivity (PSR sort gate) for "QVQLVESGGGLVQAGRSLRLSCAASGITFTGYALGWSRQATGKERELVAAISKRGARTYYADSVKGRFTISRDNAKNTVYLQMNSLKPEDTAVYYCAADSTAQDIAGLYYWGQGTQVTVSS" ?
Result: high polyreactivity

Q: Quick one: polyreactivity (PSR sort gate) for "QVQLVESGGGLVQAGGSLRLSCAASGSISGYYARGWYRQAPGKERELVASIRYTGARTYYADSVKGRFTISRDNAKYTVYVQMNSLKPEDTAVYYCAATEFTYYYSYDYWGQGTLVTVSS" ?
Result: low polyreactivity

Q: Quick one: polyreactivity (PSR sort gate) for "QVQLVESGGGLVQAGGSLRLSCAASGSTLNRNVMGWSRQAPGKERQMVAVITYGVGSTYYADSVKGRFTISRDNAKNTHYIQMNSLKPEDTAVYYCNKDPLVFDYWGQGTQVTVSS" ?
Result: low polyreactivity

Q: Quick one: polyreactivity (PSR sort gate) for "QVQLVESGGGLVQAGGSLRLSCAASGSIFKIYAMGWYRQAHGKERELVAAISRRGSSTSYADSVKGRFTISRDNAKNTVYLQMNSLKPEDTAVYYCAARYISNPMDYWGQGTQVTVSS" ?
Result: high polyreactivity

Q: Quick one: polyreactivity (PSR sort gate) for "QVQLVESGGGLVQAGGSLRLSCAASGLTFVYNDMGWYRQAPGKERELVAGITSGGSTYYADSVKGRFTISRDNAKNTVYLQMNSLKPEDTAVYYCAADGLSTDLFRPDSIVDYWGQGTQVTVSS" ?
Result: low polyreactivity

Q: Quick one: polyreactivity (PSR sort gate) for "QVQLVESGGGLVQAGGSLRLSCAASGSIFDNYAMGWYRPAPGKERELVAVISSGGVSTSYADSVKGRFTISRDNAKNTVYLQMNSLKTEDTAVYYCAADGYYIGPYDYWGQGTQVNVSS" ?
Result: low polyreactivity

Q: Quick one: polyreactivity (PSR sort gate) for "QVQLVESGGRLVQAGGSLRLSCAASGGTFVVYAMGWYSQARGKARELGAAITWIGDSTYYADSVKGRFTISRDNAKNTVYLQMNSLKPEDTAVYYCNAEGGYYLTEYGYWGQGTQETVSS" ?
Result: low polyreactivity

Q: Quick one: polyreactivity (PSR sort gate) for "QVQLVESGGGLVQAGGSLRLSCAASGSNFHYNAMGWYRQAPGKERELVAAIRWGGGSTFYADSVKGRFTISRDNAKNTVYLQMNSLKPEDTAVYYCAADYWYETRDFTFFDLYVSYEYWGQGTQVTVSS" ?
Result: low polyreactivity

Q: Quick one: polyreactivity (PSR sort gate) for "QDQLVESGGGLVQAGGSLRLSCAASGFIFDLYAMGWYRQAPGKERELVAVISYDGGSTYYADSVKGRFTISRDNAKNTVYLQMNSLKPVDTAVYYCNTYAGLVSPSDLYDYWGQGTQVTVSS" ?
Result: low polyreactivity

Q: Quick one: polyreactivity (PSR sort gate) for "QVQLVETVRGLVQAGGSLRITCAASGRIYAYYSMGWYRQPPGKERELVAAITRSGGSTYYADSVKGRFTNSRDIAKYTVYIQMISLKPEDNAVYYCAPSLNVPYATMNYWGQGTQVTVSA" ?
Result: high polyreactivity

Q: Quick one: polyreactivity (PSR sort gate) for "QVQLVESGGGLFQAGGILRLSCAASGYTFPDYAMGWYRQAPGKEREFVATISWSGTSTYYADSVKGRFTISRDNAKNTVYLQMNSLTTEDTAVYYCNKTPSSWPDLYSYNYWGQGTQVTVSS" ?
Result: low polyreactivity

Q: Quick one: polyreactivity (PSR sort gate) for "QVQLVESGGGLVQAGGSLRLSCAASGFIFAWYAMGWYRQAPGKERELVAAISYSGGSTYYADSVKGRFTISRDNAKNTVYLEMNSLKPEDTAVYYCNKVSRGGSYGHAFDYWGQGTQVTVSS" ?
Result: high polyreactivity
